conditions: mouse, in vivo, iv, 10 mg/kg
Endpoint Label: T1/2 (h)
Response body: numeric value in h, unit text excluded.

Quickly give me recorded T1/2 for Cc1ccc(-c2cc(-c3ccc(Br)cc3)cc(/C=C/c3ccc(N(C)C)cc3)[n+]2C)cc1.[I-]
9.4

Quickly give me recorded T1/2 for CC(C)C[n+]1c(/C=C/c2ccc(N(C)C)cc2)cc(-c2ccc(Br)cc2)cc1-c1ccc(Br)cc1.[I-]
8.33

Quickly give me recorded T1/2 for CN(C)c1ccc(/C=C/c2cc(-c3ccc(Br)cc3)cc(-c3ccc(Br)cc3)[n+]2C2CCCCC2)cc1.[I-]
23.8

Quickly give me recorded T1/2 for Cc1ccc(/C=C/c2cc(-c3ccc(Br)cc3)cc(-c3ccc(Br)cc3)[n+]2C)cc1.[I-]
11

Just for reference, patent US10941114B2 is where these values come from.
